Molecular target: T1, human MSLN-R3-his protein (human, UniProt Q13421 487-598)
T1 construct: Region 3 of human mesothelin, made in HEK293E cells, His-tagged; also called human MSLN-R3 protein; hMSLN-R3-his; not shown: His tag
T1 sequence (Q13421 495-606): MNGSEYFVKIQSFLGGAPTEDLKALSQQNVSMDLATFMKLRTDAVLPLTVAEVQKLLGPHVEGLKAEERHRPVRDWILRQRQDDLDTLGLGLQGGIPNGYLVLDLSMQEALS
Assay: ELISA on coated MSLN-R3; antibody 0.01 nM
measuredQuantity: OD450 (OD450)
Field: numeric (OD450). Do not append units.

# annotated cases, reported OD450 shown
S009-F8-24.14 (antibody, human IgG1, kappa, V domains shown) VH: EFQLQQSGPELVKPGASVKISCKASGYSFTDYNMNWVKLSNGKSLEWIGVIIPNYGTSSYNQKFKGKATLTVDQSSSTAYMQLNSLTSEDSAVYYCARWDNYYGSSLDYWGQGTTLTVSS VL: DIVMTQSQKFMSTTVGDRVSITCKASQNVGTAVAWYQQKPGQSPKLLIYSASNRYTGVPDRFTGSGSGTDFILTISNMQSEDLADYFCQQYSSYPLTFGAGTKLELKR :: 0.04
S009-F8-28.23 (antibody, human IgG1, kappa, V domains shown) VH: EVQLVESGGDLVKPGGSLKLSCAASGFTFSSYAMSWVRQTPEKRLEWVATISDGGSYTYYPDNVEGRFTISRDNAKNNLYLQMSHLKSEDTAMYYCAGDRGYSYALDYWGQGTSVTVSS VL: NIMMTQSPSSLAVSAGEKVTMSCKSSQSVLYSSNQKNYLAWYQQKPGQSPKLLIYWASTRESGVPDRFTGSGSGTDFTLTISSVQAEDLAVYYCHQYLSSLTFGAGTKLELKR :: 0.07
S009-F8-18.9 (antibody, human IgG1, kappa, V domains shown) VH: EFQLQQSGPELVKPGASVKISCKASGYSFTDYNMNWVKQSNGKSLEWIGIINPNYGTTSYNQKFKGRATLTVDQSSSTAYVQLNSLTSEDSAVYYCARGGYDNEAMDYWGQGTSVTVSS VL: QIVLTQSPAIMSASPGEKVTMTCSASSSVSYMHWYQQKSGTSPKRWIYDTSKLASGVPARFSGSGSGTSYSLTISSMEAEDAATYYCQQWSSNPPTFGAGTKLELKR :: 0.04

Give the value of OD450 reported for the following: S009-F8-15.19 (antibody, human IgG1, kappa, V domains shown) VH: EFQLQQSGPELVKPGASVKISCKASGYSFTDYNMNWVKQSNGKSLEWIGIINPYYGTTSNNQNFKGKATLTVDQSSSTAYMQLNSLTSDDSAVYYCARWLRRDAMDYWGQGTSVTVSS VL: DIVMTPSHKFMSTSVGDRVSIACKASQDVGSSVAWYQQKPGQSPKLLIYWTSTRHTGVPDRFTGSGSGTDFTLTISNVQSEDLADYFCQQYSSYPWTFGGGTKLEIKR
0.04

Supply measured OD450 of S009-F8-36.12 (antibody, human IgG1, kappa, V domains shown) VH: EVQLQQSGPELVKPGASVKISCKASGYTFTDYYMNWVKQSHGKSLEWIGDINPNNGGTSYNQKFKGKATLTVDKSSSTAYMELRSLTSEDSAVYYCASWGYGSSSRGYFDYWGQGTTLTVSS VL: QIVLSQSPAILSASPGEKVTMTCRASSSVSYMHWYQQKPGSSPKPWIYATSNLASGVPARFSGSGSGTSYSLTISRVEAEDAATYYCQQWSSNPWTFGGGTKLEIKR in your reply.
0.04
